system: T1, biotinylated IL-22 with an N-terminal His/FLAG tag (bio.IL-22H/F) (human, UniProt Q9GZX6 34-179, biotinylated (site not stated))
T1 construct: not shown: N-terminal His/FLAG tag
T1 sequence: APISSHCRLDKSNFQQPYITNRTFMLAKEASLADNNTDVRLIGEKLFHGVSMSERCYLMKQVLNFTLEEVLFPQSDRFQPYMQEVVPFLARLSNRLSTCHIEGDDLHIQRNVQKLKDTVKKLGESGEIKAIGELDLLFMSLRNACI
experiment description: DELFIA competition assay: scFv titrated against bio.IL-22H/F binding to the captured IL-22 receptor complex
pIC50: −log10 of the molar value.
pIC50 of 9 or higher: MET. Under 9: NOT MET.

- binder: "GIL68 scFv (non-germlined parent) (scFv) scFv: EVQLVQSGAEVKKPGASVKVSCQASGYTFSDYYIHWVRQTPGQGFEWMGWVNPDTGGTRYAQKFQGWVTMTRDMSNTTAYMELPRLRDDDTAVYYCARDLTGFDPFDIWGQGTLVTVSSGGGGSGGGGSGGGGSAQSVLTQPPSVSVAPGKTATITCGGNNFRNKRVHWYQQRPGQAPVLVIYYDSDRPSGIPERFSGSRSGNTATLTISRVEAGDEADFYCQVWDSSTDRPLFGGGTKLTVLGAAA"
  class: "NOT MET"
- binder: "355B06 scFv (non-germlined) (scFv, Optimized clone derived from GIL92) scFv: EVQLVQSGAEVKKPGASVKVSCQASGYTFTDYYMHWVRQAPGQGLEWVGWINPYTGSAFYAQKFRGRATMTRNTSINTAYMELSRLGSDDTAVYYCAREPEKFGESSGQLWGRGTMVTISSGGGGSGGGGSGGSGSAQAVLTQPSSVSGAPGQRVTISCTGSSSNIGPGYGVHWYQQLPGTAPKLLIYGDSNRPSGVPDRFSGSKSGTSASLAITGLQAEDEADYYCQSYDSGLSGYVFGTGTQLTVLSA"
  class: "MET"
- binder: "GIL01 scFv (non-germlined parent) (scFv, also called GIL 1) scFv: EVQLVESGGGLVTPGGSLRLSCAASGFTFSDYYMSWIRQAPGRGLEWVSAISGSGGSTYYADSVKGRITISRDNAKNSLYLQMSSLRSEDTAVYYCARGLWVWDPLDYWGRGTLVTVSSGGGGSGGGGSGGGGSDIQMTQSPSTLSASIGDRVTITCRASEGIYHWLAWYQQKPGKAPKLLIYKASSLASGAPSRFSGSGSGTDFTLTISSLQPDDFATYYCQQYSNYPLTFGGGTKLEIKRAAA"
  class: "NOT MET"
- binder: "GIL60 scFv (non-germlined parent) (scFv) scFv: EVQLVESGGGVVRPGGSLRLSCAASGFTFDDYGMNWVRQAPGKGLEWVSGVNGNGGTRDYAASVKGRFTISRDNAKNSLYLQMNSLRAEDTALYYCARGWYSGSFYYFGYWGRGTLVTVSSGGGGSGGGGSGGGGSAQAVLTQPSSVSGSPGQSITISCTGASGDVGAYNFVSWYQQHPGKTPKLIIYDVNKRPSGVSNRFSGSKSGNTASLTISGLQAEDESDYYCSSYTSTFSVVFGGGTKVTVLGAA"
  class: "NOT MET"
- binder: "355E04 scFv (non-germlined) (scFv, Optimized clone derived from GIL92) scFv: QVQLVQSGAEVKKPGASVKVSCKASGYTFTHYYMHWVRQAPGQGLEWVGWINPYTGGAFYAQKFQGRVTMTRDTSINTAYMELSRLGSDDTAVYYCAREPEKFDSPNAEIWGRGTMVTISSEGGGSGGGGSGGSGSAQAVLTQPSSVSGAPGQRVTISCTGSSSNIGAGYGVHWYQQLPGTAPKLLIYGNSNRPSGVPDRFSGSKSGTSASLAITGLQAEDEADYYCQSYDSSLSGYVFGTGTQLTVLSA"
  class: "MET"
- binder: "166G05 scFv (non-germlined) (scFv, Optimized clone derived from GIL68) scFv: EVQLVQSGAEVKKPGASVKVSCQASGYTFSDYYIHWVRQTPGQGFEWMGWVNPDTGGTRYAQKFQGWVTMTRDMSNTTAYMELPRLRDDDTAVYYCARDLTGFDPFDIWGQGTLVTVSSGGGGSGGGGSGGGGSAQSVLTQPPSVSVAPGKTATITCGGNNFRNKRVHWYQQRPGQAPVLVIYYDSDRPSGIPERFSGSRSGNTATLTISRVEAGDEADFYCQVWDFLTDSGSFGGGTKLTVLGAAAH"
  class: "MET"
- binder: "375G06 scFv (non-germlined) (scFv, Optimized clone derived from GIL68) scFv: EVQLVQSGAEVKKPGASVKVSCQASGYTFSDYYIHWVRQTPGQGFEWMGWVNPDTGGTRYAQKFQGWVTMTRDMSNTTAYMELPRLRDDDTAVYYCARDLTGYDYYDRWGQGTLVTVSSGGGGSGGGGSGGGGGGSGGGGGGSGGGGSAQSVLTQPPSMSVAPGKTATITCGGNNFRNKRVHWYQQRPGQAPVLVIYYDSDRPSGIPERFSGSRSGNTATLTISRVEAGDEADFYCQVWDFLADEAMFGGGTKLTVLGAAAH"
  class: "MET"
- binder: "367D04 scFv (non-germlined) (scFv, Optimized clone derived from GIL60) scFv: EVQLVESGGGVVRPGGSLRLSCAASGFTFDDYGMNWVRQAPGKGLEWVSGVNWNGGTRDYAASVKGRFTISRDNAKNSLYLQMNSLRAEDTALYYCARGWYSGSPWSLGHWGRGTLVTVSSGGGGSGGGGSGGSGGGSGGSGGGSSGGGSGGGGSAQAVLTQPSSVSGSPGQSVTISCTGASGDVGAYNFVSWYQQHPGKTPKLIIYDVNKRPSGVSNRFSGSKSGNTASLTISRLQAEDESDYYCSSYTSRYTTEFGGGTKVTVLGAAAH"
  class: "MET"
- binder: "062A09 scFv (non-germlined) (scFv, Optimized clone derived from GIL16) scFv: QVQLVESGAEVKKPGASVKVSCKASGYTFTSYGISWVRQAPGQGLEWMGWVSAYTGNTNYAQKFQGRVTMTTDTSTSTAYMELRGLRSDDTAVYYCARDRGYYDAYDIWGQGTLVTVSSGGGGSGGGGSGGGGSDIQMTQSPSTLSASIGDRVTITCRASEGIYHWLAWYQQKPGKAPKLLIYKASSLASGAPSRFSGSGFGTDFTLTISSLQPDDFATYYCQQMGEYNATIGGGTKLEIKRAAAH"
  class: "MET"

All values here come from patent US20070243589A1.
